Cited source: ChEMBL document CHEMBL1154748

assay: Growth inhibition of VHL-null human RCC4 cells after 4 days by XTT assay; assay type: functional; conditions: RCC4, 96 h
Recorded metric: log10(GI50) (log10 of the value in µM)
A difference of one corresponds to tenfold GI50; all values are log10 with GI50 in µM.

Below, 5 molecules whose answers are already recorded.
Smiles code | Recorded number
Cc1cccc(Nc2nc(-c3ccncc3)c(C)s2)c1 | 1.00
Cc1cccc(Nc2nc(-c3cc(Cl)nc(Cl)c3)cs2)c1 | 1.18
Cc1ccc(Nc2nc(-c3ccncc3)cs2)cc1 | 0.40
Cc1cccc(Nc2nc(-c3ccnc(Br)c3)cs2)c1 | 0.30
Cc1cccc(Nc2nc(-c3ccncc3)c(CN3CCCCC3)s2)c1 | 1.11

Q. Which measured log10(GI50) value corresponds to `Cc1cccc(Nc2nc(-c3ccncc3Cl)cs2)c1` ?
A. 0.46

Q. Which measured log10(GI50) value corresponds to `COc1ccc(Nc2nc(-c3ccncc3)cs2)cc1OC` ?
A. 1.38

Q. Which measured log10(GI50) value corresponds to `Cc1cc(Nc2nc(-c3ccncc3)cs2)ccc1O` ?
A. 1.85

---

The following compounds are shown together with reported GI50 values.
assay: Growth inhibition of VHL-null human RCC4 cells after 4 days by XTT assay; assay type: functional; settings: RCC4, 96 h

Smiles code | GI50
Cc1cccc(C(=O)Nc2nc(-c3ccncc3)cs2)c1 | > 40 µM
Cc1cccc(Nc2nc(-c3ccncc3)c(C(=O)NCCN(C)C)s2)c1 | > 40 µM
O=[N+]([O-])c1ccc(Nc2nc(-c3ccncc3)cs2)cc1 | > 40 µM

Q. Which measured GI50 value corresponds to `Cc1cccc(Nc2nc(-c3cc[n+]([O-])cc3)cs2)c1` ?
A. > 40 µM

Q. Which measured GI50 value corresponds to `O=[N+]([O-])c1cccc(Nc2nc(-c3ccncc3)cs2)c1` ?
A. > 40 µM

Q. Which measured GI50 value corresponds to `O=C(Nc1nc(-c2ccncc2)cs1)c1ccccc1` ?
A. > 40 µM

---

experiment: Growth inhibition of VHL-null human RCC4 cells after 4 days by XTT assay; format: functional; settings: RCC4, 96 h
y if GI50 is below 20 µM. n if not; exact matches included in n.

Take a look at these entries with their results.
Smiles code | Assigned label
N#Cc1ccc(Nc2nc(-c3ccncc3)cs2)cc1 | n
Cc1cccc(Nc2nc(-c3cccnc3)cs2)c1 | n
O=[N+]([O-])c1ccccc1Nc1nc(-c2ccncc2)cs1 | n
COc1ccc(C(=O)Nc2nc(-c3ccncc3)cs2)cc1 | n

Q. Below 20 µM on GI50? Entry `Oc1ccc(Nc2nc(-c3cccnc3)cs2)cc1`
A. n

Q. Below 20 µM on GI50? Entry `Cc1cccc(Nc2nc(-c3ccncc3F)cs2)c1`
A. y

Q. Below 20 µM on GI50? Entry `COc1cc(-c2csc(Nc3cccc(C)c3)n2)ccn1`
A. n

Q. Below 20 µM on GI50? Entry `CC(=O)c1ccc(-c2cnccc2-c2csc(Nc3cccc(C)c3)n2)cc1`
A. y

---

The following compounds are shown together with reported GI50 values.
assay: Growth inhibition of VHL-null human RCC4 cells after 4 days by XTT assay; format: functional; conditions: RCC4, 96 h

Below, 4 compounds whose answers are already recorded.
Smiles code | GI50
CCOC(=O)c1sc(Nc2cccc(C)c2)nc1-c1ccncc1 | > 40 µM
Cc1cccc(Nc2nc(Cc3cccnc3)cs2)c1 | > 40 µM
COC(=O)CCc1sc(Nc2cccc(C)c2)nc1-c1ccncc1 | > 40 µM
COc1cccc(Nc2nc(-c3ccncc3)cs2)c1 | 3 µM

Q. Which measured GI50 value corresponds to `Cc1cccc(Nc2nc(-c3ccncc3[N+](=O)[O-])cs2)c1` ?
A. 8.2 µM

Q. Which measured GI50 value corresponds to `Oc1ccc(Nc2nc(-c3ccccn3)cs2)cc1` ?
A. 36 µM

Q. Which measured GI50 value corresponds to `Fc1cccc(Nc2nc(-c3ccncc3)cs2)c1` ?
A. > 40 µM

---

test: Growth inhibition of VHL-null human RCC4 cells after 4 days by XTT assay; assay type: functional; details: RCC4, 96 h
The following compounds are shown together with reported GI50 values.
Please give a number only; it is taken to be in µM.

Below, 6 compounds whose answers are already recorded.
Smiles code | Recorded metric | Recorded number
Cc1cccc(Nc2nc(-c3ccncc3)c(C(=O)N(C)C)s2)c1 | GI50 | 16
Cc1cccc(Nc2nc(-c3ccncc3)c(CN(C)C)s2)c1 | GI50 | 16
COc1ccccc1Nc1nc(-c2ccncc2)cs1 | GI50 | 33.4
CCN(CC)Cc1sc(Nc2cccc(C)c2)nc1-c1ccncc1 | GI50 | 13
Clc1ccc(Nc2nc(-c3ccncc3)cs2)cc1 | GI50 | 38
Cc1cccc(Nc2nc(-c3ccncc3)c(CCCO)s2)c1 | GI50 | 3.6

Q. Which measured GI50 value corresponds to `C#Cc1cc(-c2csc(Nc3cccc(C)c3)n2)ccn1` ?
A. 17.8

Q. Which measured GI50 value corresponds to `CN(C)CCOc1ccc(Nc2nc(-c3ccncc3)cs2)cc1` ?
A. 60

Q. Which measured GI50 value corresponds to `Cc1cccc(Nc2nc(-c3ccnc(Cl)c3)cs2)c1` ?
A. 2.2
